B1: library; a variant is named by its letters at N, in order (parent)
chain: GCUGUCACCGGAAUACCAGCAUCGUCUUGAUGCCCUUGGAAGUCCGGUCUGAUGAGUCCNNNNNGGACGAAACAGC

# Variants of: B1
# test_protocol: normalized RNA/DNA level without ligand (relative to sTRSVctl = 100) (log10 (% of sTRSVctl)); higher = less ribozyme self-cleavage, higher mRNA level
# condition_details: HEK293T, reporter: mCherry (pCS4076), ligand present: no
Measured normalized RNA/DNA level without ligand (log10) values are reported for all entries that follow.
Please give the numeric answer without any surrounding text.

>  <change>
GACUG

>  <value_observed>
1.8

$$$$

Notebook: `UAGAG` , normalized RNA/DNA level without ligand (log10) read as 1.73

Notebook: `ACUAG` , normalized RNA/DNA level without ligand (log10) read as 2.01

Notebook: `CGGUC` , normalized RNA/DNA level without ligand (log10) read as 1.82

Notebook: `CAAAU` , normalized RNA/DNA level without ligand (log10) read as 1.6

Notebook: `UAUAG` , normalized RNA/DNA level without ligand (log10) read as 1.85

Notebook: `GUGAU` , normalized RNA/DNA level without ligand (log10) read as 1.66

Notebook: `CUACC` , normalized RNA/DNA level without ligand (log10) read as 1.96

Notebook: `AUGUA` , normalized RNA/DNA level without ligand (log10) read as 1.77

Notebook: `CAAUU` , normalized RNA/DNA level without ligand (log10) read as 1.65

Data origin, for the record: the supplement of paper PMC6757056
